# Protocol: The drug is tested on Z-009 corresponding to pig gut metagenome with ENA study accession number: PRJEB37062 and ENA sample accession number: ERS12561809 for biotransformation under anaerobic condition. The drug concentrations were measured over 9 timepoints collected between 0 and 24 hours of incubation by liquid-chromatography-coupled mass spectrometry (LC–MS); also: call rule not given here
# Assay Conditions: 2 µM
Metric: Bacterial Biotransformation

Record excerpt, results attached:
{"columns": ["Molecule", "Value Observed"],
 "data": [
  ["COc1cc2nc(N3CCN(C(=O)C4COc5ccccc5O4)CC3)nc(N)c2cc1OC.CS(=O)(=O)O (configuration not stated) [DOXAZOSIN MESYLATE]", "Compound NOT metabolized"],
  ["COc1ccc(C(CN(C)C)C2(O)CCCCC2)cc1 (configuration not stated)", "Compound NOT metabolized"],
  ["CCN(C)C(=O)Oc1cccc([C@H](C)N(C)C)c1.O=C(O)C(O)C(O)C(=O)O [RIVASTIGMINE TARTRATE]", "Compound NOT metabolized"],
  ["CCCC(C)(COC(N)=O)COC(=O)NC(C)C (configuration not stated)", "Compound metabolized"],
  ["COc1ccc([C@@H]2Sc3ccccc3N(CCN(C)C)C(=O)[C@@H]2OC(C)=O)cc1", "Compound metabolized"],
  ["Br.COc1ccc2c(c1)[C@]13CCCC[C@@H]1[C@H](C2)N(C)CC3.O [DEXTROMETHORPHAN HYDROBROMIDE]", "Compound metabolized"]
]}

What measured Bacterial Biotransformation goes with CCOc1ccc2nc(S(N)(=O)=O)sc2c1 [ETHOXZOLAMIDE] ?
Compound NOT metabolized

---

# Assay Conditions: human gut metagenome, 24 h, 2 µM
Metric: Bacterial Biotransformation

See these solved cases before continuing.
{"columns": ["Compound", "Value Observed"],
 "data": [
  ["OCCN(CCO)c1nc(N2CCCCC2)c2nc(N(CCO)CCO)nc(N3CCCCC3)c2n1", "Compound metabolized"],
  ["CC(C)[C@H]1CC[C@H](C(=O)N[C@H](Cc2ccccc2)C(=O)O)CC1 [NATEGLINIDE]", "Compound metabolized"],
  ["CN1CCC(=C2c3ccccc3CC(=O)c3sccc32)CC1.O=C(O)/C=C/C(=O)O [KETOTIFEN FUMARATE]", "Compound NOT metabolized"],
  ["O=C([O-])C[C@H](O)C[C@H](O)/C=C/c1c(C2CC2)nc2ccccc2c1-c1ccc(F)cc1.O=C([O-])C[C@H](O)C[C@H](O)/C=C/c1c(C2CC2)nc2ccccc2c1-c1ccc(F)cc1.[Ca+2]", "Compound metabolized"],
  ["CCc1cccc2c3c([nH]c12)C(CC)(CC(=O)O)OCC3 (configuration not stated)", "Compound NOT metabolized"]
]}

Consider the compound shown here: "C[C@]12CCC(=O)C=C1[C@@H]1C[C@@H]1[C@H]1[C@@H]3[C@@H]4C[C@@H]4[C@@]4(CCC(=O)O4)[C@@]3(C)CC[C@@H]12" What is its recorded Bacterial Biotransformation?
Compound NOT metabolized

Next entry: CC(N)C12CC3CC(CC(C3)C1)C2 (configuration not stated)
Compound NOT metabolized

Field entry: "O=C(CCCN1CCC2(CC1)C(=O)NCN2c1ccccc1)c1ccc(F)cc1"
Compound NOT metabolized

Can you handle CCOC(=O)C1=C(C)NC(C)=C(C(=O)OC)C1c1cccc([N+](=O)[O-])c1 (configuration not stated) next?
Compound metabolized

Now this one: CC(C)(C)NC[C@H](O)COc1nsnc1N1CCOCC1.O=C(O)/C=C\C(=O)O [TIMOLOL MALEATE]
Compound NOT metabolized

One more compound: C=C[C@H]1CN2CC[C@H]1C[C@H]2[C@H](O)c1ccnc2ccc(OC)cc12.C=C[C@H]1CN2CC[C@H]1C[C@H]2[C@H](O)c1ccnc2ccc(OC)cc12.O.O.O=S(=O)(O)O [QUININE SULFATE]
Compound metabolized

Param item: COC(=O)C(c1ccccc1)C1CCCCN1 (configuration not stated) [METHYLPHENIDATE]
Compound NOT metabolized
